System: M17-SYNwt cells
Test: α-synuclein cytotoxicity assay (LDH leakage from paraquat-treated α-synuclein over-expressing neuroblastoma cells)
Assay type: cell-based, human
Settings: Homo sapiens, Neuroblastoma cell; paraquat 32 mM, 40 hours, LDH release; 10 point curves in duplicate
For each record, write down the corresponding EC50.
Give bare numbers, in µg/mL.

These solved cases illustrate the format of a correct answer.
>>> endpoint_value("COc1ccc(S(=O)(=O)N2CCN(c3nc(Cc4ccc(F)cc4)ns3)CC2)cc1 [Compound 32]")
0.0024
>>> endpoint_value("Cc1ccccc1NC(=O)N1CCN(c2nc(Cc3ccc(F)cc3)ns2)CC1C (stereo not drawn) [Compound 10]")
0.6
>>> endpoint_value("Fc1ccc(Cc2nsc(N3CCN(Cc4ccccc4)CC3)n2)cc1 [Compound 113]")
1.54

Hi! Can you tell me EC50 for each of these compounds?
1. COc1cccc(Cc2nsc(N3CCN(C(=O)c4ccc(F)cc4)C(C)C3)n2)c1 (stereo not drawn) [Compound 123]
2. O=C(c1cccc(Cl)c1)N1CCN(c2nc(Cc3ccc(F)cc3)ns2)CC1 [Compound 138]
3. CCc1ccccc1NC(=O)N1CCN(c2nc(Cc3ccc(F)cc3)ns2)CC1C (stereo not drawn) [Compound 12]
4. O=C(Cc1ccccc1)NCCN1CCN(c2nc(Cc3ccc(F)cc3)ns2)CC1 [Compound 108]
5. Cc1ccccc1C(=O)N1CCN(c2nc(Cc3ccc(F)cc3)ns2)CC1C (stereo not drawn) [Compound 140]

Output line:
1. 0.14
2. 0.36
3. 0.89
4. 2.06
5. 0.45

Input line: # get_value(readout='EC50', item= CCc1ccc(C(=O)N2CCN(c3nc(Cc4ccc(C)cc4)ns3)CC2)cc1 [Compound 131] )
Output line: 0.25

----------
For each record, write down the corresponding EC50.
Tested on: M17-SYNwt cells
Assay: α-synuclein cytotoxicity assay (LDH leakage from paraquat-treated α-synuclein over-expressing neuroblastoma cells)
Type: cell-based, human
Details: Homo sapiens, Neuroblastoma cell; paraquat 32 mM, 40 hours, LDH release; 10 point curves in duplicate
One number for each entry, in µg/mL.

>>> endpoint_value("CC1CN(c2nc(Cc3ccc(F)cc3)ns2)CCN1C(=O)c1ccc(F)cc1 (stereo not shown) [Compound 127]")
0.23

Hi! Can you tell me EC50 for each of these compounds?
1. CC1CN(c2nc(Cc3ccc(F)cc3)ns2)CCN1C(=O)c1ccccc1 (stereo not shown) [Compound 126]
2. CC1CN(c2nc(Cc3ccc(F)cc3)ns2)CCN1C(=O)c1ccc(C(C)(C)C)cc1 (stereo not shown) [Compound 128]
3. Cc1ccc(Cc2nsc(N3CCN(C(=O)c4ccc(F)cc4)CC3)n2)cc1 [Compound 160]

Output line:
[0.21, 0.24, 2.87]

----------
For each record, write down the corresponding EC50.
Tested on: M17-SYNwt cells
Experiment: α-synuclein cytotoxicity assay (LDH leakage from paraquat-treated α-synuclein over-expressing neuroblastoma cells)
Type: cell-based, human
Conditions: Homo sapiens, Neuroblastoma cell; paraquat 32 mM, 40 hours, LDH release; 10 point curves in duplicate
Give bare numbers, in µg/mL.

>>> endpoint_value("Cc1ccc(NC(=O)N2CCN(c3nc(Cc4ccc(F)cc4)ns3)CC2C)c(C)c1 (centres unmarked) [Compound 20]")
0.76

Hi! Can you tell me EC50 for each of these compounds?
1. O=C(c1ccc(F)cc1)N1CCN(c2nc(Cc3ccc(Cl)cc3)ns2)CC1 [Compound 153]
2. COc1ccc(C(=O)N2CCN(c3nc(Cc4ccc(F)cc4)ns3)CC2C)c(OC)c1 (centres unmarked) [Compound 136]
3. O=C(c1cc(Cl)cc(Cl)c1)N1CCN(c2nc(Cc3ccc(F)cc3)ns2)CC1 [Compound 137]
4. Cc1cccc(C)c1NC(=O)N1CCN(c2nc(Cc3ccc(F)cc3)ns2)CC1 [Compound 24]
5. Cc1ccccc1N1CCN(c2nc(Cc3ccc(F)cc3)ns2)CC1 [Compound 185]
6. Cc1ccc(Cc2nsc(N3CCN(S(=O)(=O)c4cccc5ccccc45)CC3)n2)cc1 [Compound 35]
7. O=C(NCCN1CCN(c2nc(Cc3ccc(F)cc3)ns2)CC1)c1ccccc1 [Compound 104]
8. Cc1ccc(Cc2nsc(N3CCN(C(=O)c4ccc(F)cc4)C(C)C3)n2)cc1 (centres unmarked) [Compound 151]

Output line:
1. 1.44
2. 0.34
3. 0.35
4. 1.2
5. 0.38
6. 0.0472
7. 3.82
8. 1.14

Hi! Can you tell me EC50 for each of these compounds?
1. Cc1ccc(Cc2nsc(N3CCN(S(=O)(=O)c4ccc(F)cc4)C(C)C3)n2)cc1 (centres unmarked) [Compound 58]
2. O=C(c1ccc(F)cc1)N1CCN(c2nc(Cc3ccccc3)ns2)CC1 [Compound 163]
3. CC1CN(c2nc(Cc3ccc(F)cc3)ns2)CCN1C(=O)c1cccc(C(F)(F)F)c1 (centres unmarked) [Compound 145]
4. O=C(Cc1ccc(F)cc1)NCCN1CCN(c2nc(Cc3ccc(F)cc3)ns2)CC1 [Compound 107]
5. CCCCCc1ccc(C(=O)N2CCN(c3nc(Cc4ccc(C)cc4)ns3)CC2C)cc1 (centres unmarked) [Compound 134]

Output line:
[0.061, 3.61, 0.62, 0.26, 0.3]

Hi! Can you tell me EC50 for each of these compounds?
1. Cc1ccccc1C(=O)NCCN1CCN(c2nc(Cc3ccc(F)cc3)ns2)CC1 [Compound 99]
2. COc1ccc(S(=O)(=O)N2CCN(c3nc(Cc4ccccc4OC)ns3)CC2)cc1 [Compound 203]
3. O=C(Nc1ccccc1F)N1CCN(c2nc(Cc3ccc(F)cc3)ns2)CC1 [Compound 16]

Output line:
1.58
0.0062
5.68
